Measured TGI, listed per entry for reference.
- Test system: ACHN renal
- run description: NCI tumour cell line growth inhibition, 48 h
Numbers only here, please. The scale is µM.

The cases that follow already have their TGI on record.
CCCCCCCCCCCCCC(=O)N(CCCCCCCCC)CC(O)C(O)C(OC1OC(CO)C(O)C(O)C1O)C(O)CO (stereo not given) = 30.5
OC(CC(O)(C(F)(F)F)C(F)(F)F)c1ccc(C(O)CC(O)(C(F)(F)F)C(F)(F)F)cc1 (stereo not given) = 27.6

// below: TGI requested for another compound
Query string: // TGI lookup, key: Brc1ccc2c(-c3csc(-c4c[nH]c5ccccc45)n3)c[nH]c2c1
Result string: 32.1

----------
We begin with a simple list: items and their reported TGI.
- System: OVCAR-4 ovarian
- run description: NCI tumour cell line growth inhibition, 48 h

Below, each entry is followed by its recorded TGI result.
CCN(CC)c1ccc(/C=C/C=C2\NC(=O)NC2=O)cc1 = > 100 µM
Cc1ccc(C(=O)CC2=Nc3nnc(CCCCCCCc4nnc5n4C(=O)C(CC(=O)c4ccc(C)cc4)=N5)n3C2=O)cc1 = > 100 µM
CC(=O)[CH-]C(=O)c1ccccc1.CC(=O)[CH-]C(=O)c1ccccc1.CC[O-].O=C1c2ccccc2C(=O)c2c1ccc(O)c2[O-].[Ti+4] = > 100 µM
C[C@H]1COC2=C1C(=O)C(=O)c1c2ccc2c1CCCC2(C)C = > 100 µM
CC(=O)/C(=C/N1CCNC1=S)C(=O)Nc1ccccc1C = > 100 µM

Query string: Entry CN(C)/N=N/c1nc[nH]c1C(N)=O has what TGI?
Result string: > 1000 µM

Query string: Return reported TGI; argument: CC(=O)OC1COC(Nc2nc(N)n(C)c(=O)c2N=O)C(OC(C)=O)C1OC(C)=O (configuration not stated)
Result string: > 10 µM

Query string: Which TGI is reported for this compound? CC#Cc1nc(Nc2cc(C)[nH]n2)c2ccccc2n1
Result string: > 100 µM

Query string: What value of TGI has been reported for the following compound? COc1ccc(C[C@H](N)C(=O)N2C[C@@H](CO)C[C@@H](n3ccc(=O)[nH]c3=O)C2)cc1
Result string: > 100 µM

Query string: Name the recorded TGI for NC(N)=NCCCC(NC(=O)OCCCCn1ccc(N)nc1=O)C(=O)O (configuration not stated) .
Result string: > 100 µM

Query string: Entry C=CCn1c(-c2ccc([N+](=O)[O-])cc2)csc1=N : reported TGI = ?
Result string: > 100 µM

Query string: Item under review: CC(O)c1cc(C(=O)N[C@@H](C)Cn2ccc(-c3ccc(C#N)c(Cl)c3)n2)n[nH]1 (some centres not stated) . Reported TGI?
Result string: > 100 µM

----------
- Test system: A498 renal
- run description: NCI tumour cell line growth inhibition, 48 h
reported endpoint: TGI

Cc1cc(S(=O)(=O)/N=C(/NN)NNc2cccc(C(F)(F)F)n2)c(S)cc1Cl = 50.1 µM
CC1=C(C)C(=O)C(C2=CC(=O)C=CC2=O)=C(C2=CC(=O)C=CC2=O)C1=O = > 100 µM

Query string: Fill blank: measured TGI of the compound O=C1CSc2cc([N+](=O)[O-])ccc2N1 is ____.
Result string: > 100 µM

Query string: Dear colleague, I am looking for the recorded TGI of the following compound: Oc1c(CN2CCN(c3ccccc3)CC2)cc(Br)c2cccnc12
Result string: > 100 µM

----------
Listed next: entries and their corresponding TGI.
- Test system: BT-549 breast
- run description: NCI tumour cell line growth inhibition, 48 h
Quick reminder: number only, in µM, skip the unit.

C=CC(COC(c1ccccc1)(c1ccccc1)c1ccccc1)N(CC)CC (configuration not stated) = 30.3

Query string: Returns the measured TGI for the input molecule. Input: Oc1cc(Br)cc2cc(Cl)cnc12
Result string: 47.6

Query string: # TGI lookup, item Cc1cc(S(=O)(=O)/N=C(/NN)NNc2cccc(C(F)(F)F)n2)c(S)cc1Cl
Result string: 36.7

Query string: Look up TGI: Cc1ccc(Sc2cc3c(oc2=O)-c2ccccc2OC3O)cc1 (configuration not stated)
Result string: 37.4

Query string: Which TGI value is on record for C[C@H]1COC2=C1C(=O)C(=O)c1c2ccc2c1CCCC2(C)C ?
Result string: 5.71

Query string: Requested read-out: TGI. Entry: COC(=O)C(C)NC(=O)c1ccccc1I(OS(=O)(=O)C(F)(F)F)c1ccccc1 (configuration not stated)
Result string: 57.3

Query string: Consider the molecule CCCCCn1c(C)cc(/C=C\c2ccc3cc(C)ccc3[n+]2C)c1C and give its measured TGI.
Result string: 0.664

Query string: Tell me the measured TGI of S=c1[nH]c2ccc(I)cc2c(=S)n1Cc1ccccc1 , please.
Result string: 27

----------
- Tested on: HCC-2998 colon
- run description: NCI tumour cell line growth inhibition, 48 h
Reported GI50 by item:

COc1ccc2nc3cc(Cl)ccc3c(NCCNc3c4ccc(Cl)cc4nc4ccc(OC)cc34)c2c1 = 1790 nM
O=C1C(Cl)=C(Nc2cccc(C(F)(F)F)c2)C(=O)N1Cc1ccc(Cl)cc1 = 835 nM
COC(=O)C(C)NC(=O)c1ccccc1I(OS(=O)(=O)C(F)(F)F)c1ccccc1 (centres undefined) = 14700 nM

Query string: # get_value(readout='GI50', item= COc1ccc(Cn2cc3c(c2-c2cc(OC)c(OC)c(OC)c2)CCc2cnoc2-3)cc1 )
Result string: 557 nM

----------
- Tested on: OVCAR-4 ovarian
- run description: NCI tumour cell line growth inhibition, 48 h
This section presents compounds with their documented TGI values.

Before answering, review these 5 worked examples.
CC1(C)CCc2c(c(N=Nc3ccc(F)cc3)c3ccccc3c2O)O1 = > 100 µM
COc1ccc(Sc2ccccc2N)cc1 = > 100 µM
Nc1c(C(=O)Nc2cccc(Cl)c2Cl)sc2nc3c(cc12)C(=O)CCC3 = > 100 µM
O=S1Nc2c(Cl)cc(Cl)c(Cl)c2S1 (configuration not stated) = > 100 µM
Cn1cc(C2=C(N3CCOCC3)C(=O)NC2=O)c2ccccc21 = > 25 µM

Query string: Reported TGI for CC(=O)Nc1ccccc1NC1CC(C)N(c2ccccc2)N1C(C)=O (configuration not stated) : what is it?
Result string: > 10 µM

Query string: Look up TGI for this compound: Cc1ccc(-n2cc([Si](C)(C)C)nn2)s1
Result string: > 100 µM

Query string: I would be grateful if you could share the reported TGI for O=c1[nH]c(=S)c2cc3c(=S)[nH]c(=O)n(CCO)c3nc2n1CCO .
Result string: > 100 µM

Query string: Request the reported TGI associated with O=C(NC(=S)Nc1cc(Cl)ccc1O)c1cccc(Br)c1
Result string: > 100 µM

Query string: Endpoint output: TGI of CCOC(=O)/C=C(\C(=O)OCC)n1ccc(=O)[nH]c1=O . Value?
Result string: > 52.3 µM

Query string: Find the recorded TGI belonging to C[C@@H]1COCCN1c1cc(C2(O)C[C@H]3CC[C@@H](C2)O3)c2cnn(-c3ccn[nH]3)c2n1 (some centres not stated) and report it.
Result string: 0.419 µM

Query string: Can you share its TGI? I mean this compound: COc1ccc(Nc2nc(N)c(C(=O)c3cccs3)s2)cc1
Result string: 48.1 µM

Query string: Return reported TGI; argument: CC(=O)c1cc(O)c2ccccc2c1O
Result string: 41.6 µM

Query string: For NC(=S)NN=C1CSSC1 , what is its reported TGI?
Result string: 38.7 µM

Query string: Reported TGI, compound CC(C)=CCCC(C)C1=C(O)C(=O)C(C)=CC1=O (configuration not stated) : ____
Result string: 17.4 µM

Query string: Data request, read-out TGI, for O=C1CC2CCC(C1)S2=O (configuration not stated)
Result string: > 100 µM

Query string: Endpoint output: TGI of O=C1CSc2cc([N+](=O)[O-])ccc2N1 . Value?
Result string: > 100 µM

----------
- System: SF-295 CNS
- run description: NCI tumour cell line growth inhibition, 48 h
This section presents molecules with their documented TGI values.

CN(C)CCCNCc1cccc2ccccc12 = > 100 µM
Oc1cc(Br)cc2cc(Cl)cnc12 = > 48 µM
C=C1C(=O)O[C@H]2[C@H]1CC/C(COC(=O)NCc1ccc(Cn3c(=O)sn(-c4ccccc4)c3=O)cc1)=C\CC[C@@]1(C)O[C@@H]21 = 21.8 µM
Cc1ccc([C@]2(C)CC[C@H](C)/C2=C\Br)c(O)c1 = 11.6 µM
COC(=O)C(NC(=O)c1ccccc1)C(c1ccc(Cl)cc1)P(=O)(OC)OC (stereo not drawn) = > 100 µM
NC(CSSCC(N)Cc1ccccc1)Cc1ccccc1 (stereo not drawn) = > 100 µM
[N-]=[N+]=Nc1c([N+](=O)[O-])c(=O)n2c3c(cccc13)CCC2 = > 100 µM

// below: TGI requested for another molecule
Query string: Record O=C(CCCCC(=O)N/N=C\c1ccccc1O)N/N=C\c1ccccc1O : what is its TGI with SF-295 CNS?
Result string: 6.55 µM
